Cited source: patent US20260308264

Molecular target: T1, IL-5Rα (human, UniProt Q01344)
T1 chain: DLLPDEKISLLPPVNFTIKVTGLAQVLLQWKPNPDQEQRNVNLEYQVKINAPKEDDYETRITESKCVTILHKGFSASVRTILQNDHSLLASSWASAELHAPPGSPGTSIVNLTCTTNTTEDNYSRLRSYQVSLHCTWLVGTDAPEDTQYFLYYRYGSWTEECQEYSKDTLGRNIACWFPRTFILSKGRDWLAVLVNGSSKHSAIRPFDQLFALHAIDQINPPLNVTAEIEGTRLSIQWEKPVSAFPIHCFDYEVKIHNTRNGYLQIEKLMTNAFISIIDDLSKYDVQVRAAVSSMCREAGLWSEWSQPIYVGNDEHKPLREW
Assay: BLI
readout: Kd (nM)
Enter your answer as a number in nM; do not include the unit.

Take a look at these entries with their results.
IL-5Rα×CD3ε scFv(L)/scFv-Fc (IL-5Rα arm) (antibody, V domains shown) VH: QVQLVQSGAEVKKPGSSVKVSCKASGYTFTSYWINWVRQAPGQGLEWIGHIYPNKNENYYNHKFKDKATLTVDKSTNTAYMELSSLRSEDTAVYYCTREFYGRQYYQAMDYWGQGTTLTVSS VL: DIQMTQSPSTLSASVGDRVTITCKASQNVGTAVAWYQQKPGKAPKLLIYWASTRHTGVPDRFSGSGSGTDFTLTISSLQPDDFATYYCQQFGRYPYTFGSGTKVEVK | 59.8
IL-5Rα×CD3ε Diabody-Fc (IL-5Rα arm) (antibody, V domains shown) VH: QVQLVQSGAEVKKPGSSVKVSCKASGYTFTSYWINWVRQAPGQGLEWIGHIYPNKNENYYNHKFKDKATLTVDKSTNTAYMELSSLRSEDTAVYYCTREFYGRQYYQAMDYWGQGTTLTVSS VL: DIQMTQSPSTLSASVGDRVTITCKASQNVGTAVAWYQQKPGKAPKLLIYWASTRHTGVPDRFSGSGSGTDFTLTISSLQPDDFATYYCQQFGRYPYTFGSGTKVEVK | 123
IL-5Rα×CD3ε BiTE(L)/scFv-Fc (IL-5Rα arm) (antibody, V domains shown) VH: QVQLVQSGAEVKKPGSSVKVSCKASGYTFTSYWINWVRQAPGQGLEWIGHIYPNKNENYYNHKFKDKATLTVDKSTNTAYMELSSLRSEDTAVYYCTREFYGRQYYQAMDYWGQGTTLTVSS VL: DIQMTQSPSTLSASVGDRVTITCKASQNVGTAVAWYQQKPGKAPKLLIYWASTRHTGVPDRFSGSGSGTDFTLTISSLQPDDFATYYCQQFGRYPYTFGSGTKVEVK | 22.9

Ask | Would you mind telling me what Kd value was observed for IL-5Rα×CD3ε IgG analog (IL-5Rα arm) (antibody, V domains shown) VH: QVQLVQSGAEVKKPGSSVKVSCKASGYTFTSYWINWVRQAPGQGLEWIGHIYPNKNENYYNHKFKDKATLTVDKSTNTAYMELSSLRSEDTAVYYCTREFYGRQYYQAMDYWGQGTTLTVSS VL: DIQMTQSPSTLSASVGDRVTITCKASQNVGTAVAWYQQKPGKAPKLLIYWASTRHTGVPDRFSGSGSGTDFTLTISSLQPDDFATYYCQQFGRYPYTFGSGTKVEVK ?
Reply | 30.5
